These data points were gathered from PubChem BioAssay AID2060907.

- Test system: 388556-164-R-J1-PDC complex spheroid viability
- protocol summary: Anticancer human tumor 388556-164-R-J1-PDC patient-derived colon adenocarcinoma cell line growth inhibition [RAS]
- conditions: second compound 10 µM; first compound 1 µM; stronger effect = lower value
quantity name: viability, T/C (%)
Numbers only here, please. The scale is %.

compound: CC(=O)OC12COC1CC(O)C1(C)C(=O)C(O)C3=C(C)C(OC(=O)C(O)C(NC(=O)OC(C)(C)C)c4ccccc4)CC(O)(C(OC(=O)c4ccccc4)C21)C3(C)C (stereo not given) + C#Cc1c(F)ccc2cc(O)cc(-c3ncc4c(N5CC6CCC(C5)N6)nc(OCC56CCCN5CC(F)C6)nc4c3F)c12
viability, T/C, %: 54.7

Ask: May I ask what viability, T/C has been recorded for CC1(O)CCCC1n1c(=O)c(C(F)F)cc2cnc(NC3CCN(S(C)(=O)=O)CC3)nc21 (stereo not given) + C#Cc1c(F)ccc2cc(O)cc(-c3ncc4c(N5CC6CCC(C5)N6)nc(OCC56CCCN5CC(F)C6)nc4c3F)c12 ?
Result: 76.2

Ask: Reported viability, T/C for Cc1nc(N2CCC3(CC2)COC(C)C3N)c(CO)nc1Sc1ccnc(N)c1Cl (stereo not given) + C#Cc1c(F)ccc2cc(O)cc(-c3ncc4c(N5CC6CCC(C5)N6)nc(OCC56CCCN5CC(F)C6)nc4c3F)c12 : what is it?
Result: 32.1

Ask: I would be grateful if you could share the reported viability, T/C for CC(C)NCC(C(=O)N1CCN(c2ncnc3c2C(C)CC3O)CC1)c1ccc(Cl)cc1 (stereo not given) + C#Cc1c(F)ccc2cc(O)cc(-c3ncc4c(N5CC6CCC(C5)N6)nc(OCC56CCCN5CC(F)C6)nc4c3F)c12 .
Result: 87.2

Ask: Reported viability, T/C for CC(Nc1ccc2c(c1)OCCn1cc(N3C(=O)OCC3C(F)F)nc1-2)C(N)=O (stereo not given) + C#Cc1c(F)ccc2cc(O)cc(-c3ncc4c(N5CC6CCC(C5)N6)nc(OCC56CCCN5CC(F)C6)nc4c3F)c12 : what is it?
Result: 50.8

Ask: // returns reported viability, T/C for input CCC(CC)c1cc(NC2CCC(N)C2)n2nccc2n1 (stereo not given) + C#Cc1c(F)ccc2cc(O)cc(-c3ncc4c(N5CC6CCC(C5)N6)nc(OCC56CCCN5CC(F)C6)nc4c3F)c12
Result: 60.4

----------
- Tested on: 388556-164-R-J1-PDC complex spheroid viability
- protocol summary: Anticancer human tumor 388556-164-R-J1-PDC cell line growth inhibition [RAS];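 note: spheroids exposed to compound for 7 days before readout; 100% = DMSO vehicle control luminescence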
- conditions: second compound 0.00949 µM; first compound 1 µM; stronger effect = lower value
- Excerpt: RAS pathway inhibitors in Combinations in Complex Spheroids A high-throughput screen of multi-cell type tumor spheroids was designed to identify active combinations of RAS pathway inhibitors and targeted small molecules. Complex spheroids include a stromal component modeled by human endothelial cells (HUVEC) and fibroblasts modeled by human mesenchymal stem cells (MSCs). […] Compounds. […] If the clinical Cmax for an agent had not been determined, the highest concentration tested was 10 microM. […]
quantity name: viability, T/C (%)
Write the answer as a number in %, unit excluded.

molecule: C=CC(=O)Nc1cc(Nc2nccc(-c3cn(C)c4ccccc34)n2)c(OC)cc1N(C)CCN(C)C + CCn1c(-c2cccnc2C(C)OC)c2c3cc(ccc31)N1CCOC(CC(NC(=O)C(C(C)C)N(C)C(=O)C3(F)CCN(C(=O)C#CC(C)(C)N(C)C)CC3)C(=O)N3CCCC(N3)C(=O)OCC(C)(C)C2)C1
viability, T/C, %: 54.1
--
molecule: Cc1nc(N2CCC3(CC2)COC(C)C3N)c(CO)nc1Sc1ccnc(N)c1Cl (stereo not drawn) + CCn1c(-c2cccnc2C(C)OC)c2c3cc(ccc31)N1CCOC(CC(NC(=O)C(C(C)C)N(C)C(=O)C3(F)CCN(C(=O)C#CC(C)(C)N(C)C)CC3)C(=O)N3CCCC(N3)C(=O)OCC(C)(C)C2)C1
viability, T/C, %: 61.7

With those in mind, consider the next molecule.
Ask: What value of viability, T/C has been reported for the following molecule? CC(=O)OC12COC1CC(O)C1(C)C(=O)C(O)C3=C(C)C(OC(=O)C(O)C(NC(=O)OC(C)(C)C)c4ccccc4)CC(O)(C(OC(=O)c4ccccc4)C21)C3(C)C (stereo not drawn) + CCn1c(-c2cc(N3CCN(C)CC3)cnc2C(C)OC)c2c3cc(ccc31)-c1csc(n1)CC(NC(=O)C1CC1C)C(=O)N1CCCC(N1)C(=O)OCC(C)(C)C2
Result: 43.9
